Test system: S. typhimurium TA98
ASSAY_PROCEDURE: Ames microplate test, TA98;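 also: reference level is the mean solvent-control yellow wells plus SD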
Format: cell-based, Salmonella typhimurium
ASSAY_SETUP: 0.5 mM, +S9
QUANTITY: Increase in the number of yellow wells compared to the reference level
Hey, just send me the number, nothing else.

| COMPOUND | READOUT_VALUE |
| --- | --- |
| O=C(/C=C/c1ccccc1)NCCCCCCO | 0.42 |
| O=C(/C=C/c1ccc(Cl)cc1)NCCCCCO | 1.50 |
| CCC(O)CNC(=O)/C=C/c1ccc(Cl)cc1 (stereo not shown) | 0.31 |

GET /values?readout=Increase in the number of yellow wells compared to the reference level&item= `O=C(/C=C/c1ccccc1)NCCCCCO`
0.50

* * *

Test system: S. typhimurium TA100
ASSAY_PROCEDURE: Ames microplate test, TA100;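 also: reference level is the mean solvent-control yellow wells plus SD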
Assay type: cell-based, Salmonella typhimurium
ASSAY_SETUP: 2.0 mM, +S9
Increase in the number of yellow wells compared to the reference level overview
Hey, just send me the number, nothing else.

| MOLECULE | TARGET_OR_SYSTEM | READOUT_VALUE |
| --- | --- | --- |
| O=C(/C=C/c1ccccc1)NCCCCCO | S. typhimurium TA100 | 0.61 |
| CCC(O)CNC(=O)/C=C/c1ccc(Cl)cc1 (stereo not shown) | S. typhimurium TA100 | 0.31 |
| O=C(/C=C/c1ccc(Cl)cc1)NCCCCCO | S. typhimurium TA100 | 0.67 |

Turning now to a further molecule:
GET /values?readout=Increase in the number of yellow wells compared to the reference level&item= `O=C(/C=C/c1ccccc1)NCCCCCCO`
0.58

* * *

Test system: B16-F10 murine melanoma cell line
ASSAY_PROCEDURE: Cytotoxicity in B16-F10 cells (MTT)
Type: cell-based
ASSAY_SETUP: 150 µM, 48 h
Measured Cytotoxicity study in B16F10 cells % viability determines class: group 1: < 80%; group 2: ≥ 80% and < 90%; group 3: ≥ 90%

| COMPOUND | CLASSIFICATION |
| --- | --- |
| O=C(/C=C/c1ccc(Cl)cc1Cl)NCCCO [H-296/20] | group 1 |

Please let me know in which category the item O=C(/C=C/c1ccc(Cl)cc1)NCCCCCCO [H-426/21] belongs.
group 1

Please let me know in which category the item CCC(CO)NC(=O)/C=C/c1ccc(Cl)cc1Cl (centres unmarked) [H-285/20] belongs.
group 2

* * *

Increase in the number of yellow wells compared to the reference level overview
Test system: E. coli WP2
ASSAY_PROCEDURE: Ames microplate test, E. coli WP2;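 also: bacteria treated 90 min at 37 °C in 24-well plates, then indicator medium dispensed to 384-well plates and incubated 48 h before yellow-well counting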
ASSAY_SETUP: 1.0 mM, without S9
Hey, just send me the number, nothing else.

Some solved entries appear below for comparison.
| COMPOUND | READOUT_VALUE |
| --- | --- |
| O=C(/C=C/c1ccc(Cl)cc1)NCCCCCO | 1.10 |
| CC(CO)NC(=O)/C=C/c1ccc(Cl)cc1 (stereo not drawn) | 1.03 |
| CCC(O)CNC(=O)/C=C/c1ccc(Cl)cc1 (stereo not drawn) | 1.00 |

GET /values?readout=Increase in the number of yellow wells compared to the reference level&item= `Cc1ccc(/C=C/C(=O)NCCCCCO)cc1`
0.40

GET /values?readout=Increase in the number of yellow wells compared to the reference level&item= `O=C(/C=C/c1ccccc1)NCCCCCCO`
0.67

GET /values?readout=Increase in the number of yellow wells compared to the reference level&item= `O=C(/C=C/c1ccccc1)NCCCCCO`
0.37

* * *

System: Primary melanocytes
ASSAY_PROCEDURE: Safety, LDH test in primary melanocytes
Format: cell-based
ASSAY_SETUP: 150 µM; 48 hours; positive control Triton X-100
QUANTITY: Primary melanocytes LDH

GET /values?readout=Primary melanocytes LDH&item= `O=C(/C=C/c1ccc(Cl)cc1)NCCO`
4.44 percentage of positive control

* * *

Tested on: tyrosinase from mushroom
ASSAY_PROCEDURE: Inhibition of commercial mushroom tyrosinase (L-DOPA or L-tyrosine substrate)
Assay type: biochemical
ASSAY_SETUP: L-tyrosine
Tyrosinase inhibition with L-tyrosine [%] overview

Some solved entries appear below for comparison.
| MOLECULE | TARGET_OR_SYSTEM | READOUT_VALUE |
| --- | --- | --- |
| Cc1ccc(/C=C/C(=O)NC(C)CO)cc1 (centres unmarked) | tyrosinase from mushroom | 4.40±7.15% (500 µM) |
| CCC(O)CNC(=O)/C=C/c1ccc(Cl)cc1Cl (centres unmarked) | tyrosinase from mushroom | 24.43±8.05% (500 µM) |
| Cc1ccc(/C=C/C(=O)NCCCO)cc1 | tyrosinase from mushroom | 0.51±5.40% (500 µM) |
| O=C(/C=C/c1ccccc1)NCCCCCCO | tyrosinase from mushroom | 44.61±5.99% (500 µM) |
| O=C(/C=C/c1ccccc1)NCCCCO | tyrosinase from mushroom | 35.50±1.37% (500 µM) |
| O=C(/C=C/c1ccc(Cl)cc1)NCCO | tyrosinase from mushroom | 67.45±2.66% (500 µM) |
| CCC(CO)NC(=O)/C=C/c1ccc(Cl)cc1Cl (centres unmarked) | tyrosinase from mushroom | 14.56±1.63% (500 µM) |
| O=C(/C=C/c1ccc(Cl)cc1)NCCCO | tyrosinase from mushroom | 82.49±0.65% (500 µM) |
| CCC(O)CNC(=O)/C=C/c1ccc(Cl)cc1 (centres unmarked) | tyrosinase from mushroom | 79.20±1.20% (500 µM) |
| Cc1ccc(/C=C/C(=O)NCCCCO)cc1 | tyrosinase from mushroom | 20.43±2.09% (500 µM) |

Turning now to a further molecule:
GET /values?readout=Tyrosinase inhibition with L-tyrosine [%]&item= `O=C(/C=C/c1ccc(Cl)cc1Cl)N1CCC(O)CC1`
19.24±3.44% (500 µM)

* * *

TARGET_OR_SYSTEM: tyrosinase from mushroom
ASSAY_PROCEDURE: Inhibition of commercial mushroom tyrosinase (L-DOPA or L-tyrosine substrate)
Type: biochemical
ASSAY_SETUP: L-DOPA; read-out: Tyrosinase inhibition with L-DOPA, IC50
IC50 overview
Respond numerically; units are µM and should not be typed.

Some solved entries appear below for comparison.
| MOLECULE | UNIT_SYMBOL | IC50 |
| --- | --- | --- |
| CCC(O)CNC(=O)/C=C/c1ccc(Cl)cc1 (centres unmarked) [Compound A-67] | µM | 232 |
| CC(CO)NC(=O)/C=C/c1ccc(Cl)cc1 (centres unmarked) [Compound A-102] | µM | 440 |
| O=C(/C=C/c1ccc(Cl)cc1)NCCCCO [H-331/21] | µM | 153 |
| O=C(/C=C/c1ccccc1)NCCCCO [Compound A-43] | µM | 1560 |
| O=C(/C=C/c1ccc(Cl)cc1)NCCCO [H-330/21] | µM | 265 |

Missing value: IC50, tyrosinase from mushroom, entry O=C(/C=C/c1ccc(Cl)cc1)N1CCC(O)CC1 [Compound A-99] . Fill in?
450

Missing value: IC50, tyrosinase from mushroom, entry O=C(/C=C/c1ccccc1)NCCCCCO [Compound A-133] . Fill in?
523

Missing value: IC50, tyrosinase from mushroom, entry O=C(/C=C/c1ccc(Cl)cc1)NCCCCCO [Compound A-111] . Fill in?
147

Missing value: IC50, tyrosinase from mushroom, entry O=C(/C=C/c1ccc(Cl)cc1)NCCO [H-427/21] . Fill in?
278

Missing value: IC50, tyrosinase from mushroom, entry CCC(CO)NC(=O)/C=C/c1ccc(Cl)cc1 (centres unmarked) [Compound A-01] . Fill in?
734

Missing value: IC50, tyrosinase from mushroom, entry CC(C)C(CO)NC(=O)/C=C/c1ccc(Cl)cc1 (centres unmarked) [Compound A-106] . Fill in?
906

* * *

Test system: B16-F10 murine melanoma cell line
ASSAY_PROCEDURE: Cytotoxicity in B16-F10 cells (MTT)
Format: cell-based
ASSAY_SETUP: 200 µM, 48 h
Protocol: In order to determine safe doses of compounds for testing the inhibition of melanogenesis in a murine melanoma cell line, cytotoxicity tests were performed. Cytotoxicity was determined by the colorimetric method using MTT ([3-(4,5-dimethyl-2-thiazolyl)-2,5-diphenyl-2H-tetrazolium bromide, Sigma M5655). […] The absorbance was measured at 570 nm in a plate reader and the result was compared to the control (DMSO), which was 100%. […]
QUANTITY: Cytotoxicity study in B16F10 cells % viability (%)
Respond numerically; units are % and should not be typed.

Some solved entries appear below for comparison.
| COMPOUND | UNIT_SYMBOL | READOUT_VALUE |
| --- | --- | --- |
| O=C(/C=C/c1ccc(Cl)cc1Cl)N1CCC(O)CC1 | % | 100.4 |
| O=C(/C=C/c1ccccc1)NCCO | % | 79.8 |
| Cc1ccc(/C=C/C(=O)NC(C)CO)cc1 (stereo not shown) | % | 101.3 |

GET /values?readout=Cytotoxicity study in B16F10 cells % viability&item= CCC(CO)NC(=O)/C=C/c1ccc(Cl)cc1Cl (stereo not shown)
74.8

GET /values?readout=Cytotoxicity study in B16F10 cells % viability&item= `O=C(/C=C/c1ccccc1)NCCCCCCO`
98.4

GET /values?readout=Cytotoxicity study in B16F10 cells % viability&item= `O=C(/C=C/c1ccccc1)NCCCCO`
105.7

GET /values?readout=Cytotoxicity study in B16F10 cells % viability&item= `O=C(/C=C/c1ccccc1)NCCCO`
70.5

GET /values?readout=Cytotoxicity study in B16F10 cells % viability&item= `O=C(/C=C/c1ccc(Cl)cc1)NCCCO`
82.9

GET /values?readout=Cytotoxicity study in B16F10 cells % viability&item= CCC(CO)NC(=O)/C=C/c1ccc(C)cc1 (stereo not shown)
95.3

GET /values?readout=Cytotoxicity study in B16F10 cells % viability&item= `O=C(/C=C/c1ccc(Cl)cc1)NCCCCCO`
95.6

GET /values?readout=Cytotoxicity study in B16F10 cells % viability&item= CCC(O)CNC(=O)/C=C/c1ccc(C)cc1 (stereo not shown)
87.3
